# Tested On: Recombinant human full-length wild-type aSyn fibrils (Homo sapiens)
# Construct: Recombinant human full-length wild-type aSyn bacterially expressed; purchased rPeptide, US
# Test Name: Radio-binding competition assay on recombinant aSyn fibrils
# Condition Notes: measurement A, first batch of aSyn fibrils; radioligand [3H] Example 69 of WO2017/153601 (Kd 32 nM); read-out: Ki on aSyn Fibrils, measurement A
Measurement Type: Ki (nM)

[
  {
    "Compound": "CN1CCN(c2ccc3nc(-c4ccc(N5CC[C@@H](F)C5)nc4)sc3c2)C(=O)C1 [Example 70 of WO2017/153601, reference compound]",
    "Units Label": "nM",
    "Result Value": 39
  }
]

I. CN1CCN(c2ccc3nc(-c4ccc(N5CC[C@H](F)C5)nc4)sc3c2)C(=O)C1 [Example 71 of WO2017/153601, reference compound]
II. CN1CCN(c2cc3sc(-c4ccc(N5CC[C@H](F)C5)nc4)nc3cn2)C(=O)C1
III. CNc1ncc(-c2nc3cnc(N4CCN(C)CC4=O)cc3s2)cc1F
IV. CN1CCN(c2cc3sc(-c4cnc(N5CCC5)c(F)c4)nc3cn2)C(=O)C1
Rank entries according to their Ki, from the largest number down. Output spec: a listing of the labels in the requested order. I, III, II, IV
(I: 46.9 nM, III: 27.8 nM, II: 12.2 nM, IV: 5.8 nM)

a. CN1CCN(c2ncc3nc(-c4ccc(N5CC(F)C5)nc4)sc3n2)C(=O)C1
b. CN1CCN(c2ncc3nc(-c4ccc(N5CCC[C@H](F)C5)nc4)sc3n2)C(=O)C1
c. CN1CCN(c2cc3sc(-c4ccc(N5CC[C@@H](F)C5)nc4)nc3cn2)C(=O)C1
Sort the compounds on Ki; start with the lowest figure. Output spec: a listing of the labels in the requested order. c, b, a
(c: 14.7 nM, b: 34.2 nM, a: 55.3 nM)
